# TEST NAME: chemical genetic growth profiling, strain panel (AID 1159580);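 also: tested at 20 µM; growth read once vehicle control cultures reached saturation at 30 °C; 1 = growth at the plate median or of vehicle wells; lower values mean less growth of the strain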
# CONDITION NOTES: S. cerevisiae deletion strains, growth OD, locus YGL086W, strain mad1
About 2,000 (36%) of roughly 5,500 compounds were called active. Not shown: some 18% with an inconclusive outcome. Rule as the data show it: active = normalized growth mostly below about 0.91 (no sharp cut-off); inconclusive = no clear call, values can overlap the other calls; inactive = mostly above about 0.92. This is one part of the list.
Please reply with one of these outcomes: true = active, false = inactive

Please indicate how the test categorized COC1C=CC23c4cc5c(cc4CN(CC2O)[C@@H]3C1)OCO5 (some centres not stated) . false

Please indicate how the test categorized `Fc1ccc([C@@H]2CCNC[C@H]2COc2ccc3c(c2)OCO3)cc1` . false

Please indicate how the test categorized CN(C)CCC(c1ccccc1)c1ccccn1 (configuration not stated) . false

Please indicate how the test categorized `O=C(O)CCCCCCCC(=O)O` . false

Please indicate how the test categorized CC(=O)O[C@H]1CC[C@@]2(C)C(C[C@@H](OC(C)=O)[C@]3(C)C2CC[C@@]2(C)[C@H](c4ccoc4)OC(=O)[C@H]4O[C@]423)C1(C)C (some centres not stated) . false

Please indicate how the test categorized CCC(=O)OC1[C@@H]2CC3=C4CC(=O)O[C@@H](c5ccoc5)[C@]4(C)CCC3[C@@](C)(C2=O)[C@@H](CC(=O)OC)C1(C)C (some centres not stated) . false

Please indicate how the test categorized `NCCCCNCCCN` . false

Please indicate how the test categorized CC(=O)OC1CC(OC(C)=O)C2(C)C(CC(OC(C)=O)C3(C)C2CCC2(C)C(c4ccoc4)OC(=O)C4OC423)C1(C)C (configuration not stated) . false

Please indicate how the test categorized `O=c1oc2ccccc2cc1O` . false

Please indicate how the test categorized CC1OC(O[C@H]2/C=C/C=C/C=C/C=C/C=C/C=C/C=C/[C@H](C)[C@@H](O)[C@@H](C)[C@H](C)OC(=O)CC(O)CC(O)CCC(O)C(O)CC(O)C[C@]3(O)C[C@H](O)C(C(=O)O)C(C2)O3)C(O)[C@H](N)C1O (some centres not stated) . true

Please indicate how the test categorized CC1[C@H](C)OC(=O)CC(O)CC(O)CC(O)CCC(O)C(O)C[C@]2(O)CC(O)C(C(=O)O)C(CC(OC3O[C@H](C)[C@@H](O)[C@H](N)[C@@H]3O)/C=C/C=C/C=C/C=C/CC/C=C/C=C/[C@H](C)[C@H]1O)O2 (some centres not stated) . true

Please indicate how the test categorized O=C(O)CCC1NCC2CC1CN1CCCCC21 (configuration not stated) . false

Please indicate how the test categorized COc1ccc2c(c1)OCC(Cc1ccc(OC)c(OC(C)=O)c1)C2=O (configuration not stated) . false

Please indicate how the test categorized CNc1ccc(C(=O)CC(O)CCC(C)C2OC(=O)CC(O)CC(=O)CC(O)CC(O)CC(O)CC(O)CC3(O)CC(O)C(C(=O)OC)C(CC(OC4OC(C)C(O)C(N)C4O)/C=C/C=C/C=C/C=C/C=C/C=C/C=C/C2C)O3)cc1 (configuration not stated) . true

Please indicate how the test categorized `CC(=O)O[C@]1(C)CC[C@@]23CC1C(C)(C)[C@@H]2CC[C@H]3C` . false

Please indicate how the test categorized CC(=O)O[C@H]1C[C@@H](OC(C)=O)C(C)(C)C2C[C@@H](OC(C)=O)[C@]3(C)C(CC[C@@]4(C)[C@H](c5ccoc5)OC(=O)[C@H]5O[C@]543)[C@]21C (some centres not stated) . false

Please indicate how the test categorized CC(=O)O[C@H]1C[C@@]2(C)[C@@H](C[C@@H](O)C3[C@]2(C)CC[C@H]2[C@H](C)[C@H](O)CC[C@]32C)/C1=C(/CCC=C(C)C)C(=O)O (some centres not stated) . false

Please indicate how the test categorized `CC(=O)NCCc1c[nH]c2ccc(O)cc12` . false

Please indicate how the test categorized COc1ccc2c(c1)OCC(Cc1ccc(OC)c(O)c1)C2=O (configuration not stated) . false

Please indicate how the test categorized C[C@]12CCC3C(CC[C@H]4C[C@H](O)CC[C@]34C)C1CC[C@@H]2O (some centres not stated) . false

Please indicate how the test categorized CC(=O)O[C@@H]1CC2C(C)(C)[C@H](O)CC[C@]2(C)C2CC[C@@]3(C)[C@H](c4ccoc4)OC(=O)[C@H]4O[C@]43[C@@]21C (some centres not stated) . false

Please indicate how the test categorized NCC[C@@H](O)C(=O)N[C@@H]1C[C@H](N)[C@@H](O[C@H]2O[C@H](CN)[C@@H](O)[C@H](O)[C@H]2O)[C@H](O)[C@H]1O[C@H]1O[C@H](CO)[C@@H](O)[C@H](N)C1O (some centres not stated) . false

Please indicate how the test categorized NC(=O)NC1NC(=O)NC1=O (configuration not stated) . false

Please indicate how the test categorized COc1ccc2c(c1)OCC(Cc1ccc(OC)c(OC)c1)C2=O (configuration not stated) . false

Please indicate how the test categorized `CCCn1c(=O)c2[nH]c(C3CCCC3)nc2n(CCC)c1=O` . false

Please indicate how the test categorized CC1(C)C(=O)[C@@H]2O[C@@H]2[C@@]2(C)C1C[C@@H](O)[C@]1(C)C2CC[C@@]2(C)[C@H](c3ccoc3)OC(=O)C3OC321 (some centres not stated) . false

Please indicate how the test categorized CC(=O)C1CCC2C3CCC4C[C@H](O)CCC4(C)C3C[C@H](O)C12C (some centres not stated) . false

Please indicate how the test categorized CN=C(N)NCCCC(N)C(=O)O (configuration not stated) . false

Please indicate how the test categorized `OC[C@H]1O[C@@H](n2cnc3c(NCc4ccco4)ncnc32)[C@H](O)[C@@H]1O` . false

Please indicate how the test categorized CC(=O)O[C@@H]1CC2C(C)(C)[C@H](O)CC[C@]2(C)C2CC[C@@]3(C)[C@H](c4ccoc4)OC(=O)C4OC43[C@@]21C (some centres not stated) . false

Please indicate how the test categorized `CN1CCC[C@@H]1CCO[C@](C)(c1ccccc1)c1ccc(Cl)cc1` . false

Please indicate how the test categorized C=C[C@@]1(C)CC(=O)[C@@]2(O)[C@](C)(O1)[C@@H](OC(C)=O)[C@@H](O)C1C(C)(C)CC[C@H](O)[C@@]12C (some centres not stated) . false

----------
Hi there, I'd appreciate the recorded normalized growth for every entry that follows.
# TEST NAME: chemical genetic growth profiling, strain panel (AID 1159580);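 also: tested at 20 µM; growth read once vehicle control cultures reached saturation at 30 °C; 1 = growth at the plate median or of vehicle wells; lower values mean less growth of the strain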
# CONDITION NOTES: S. cerevisiae deletion strains, growth OD, locus YPL078C, strain atp4, active compounds read low
The whole screen tested about 5,500 compounds, of which about 2,000 (36%) were called active. Roughly 18% stayed inconclusive and do not appear here. The list shows a part of the results. Where a SMILES comes first, the peptide text is derived from it.
Just the number.

Provide normalized growth value for the following compound: C[C@@H]1CC[C@H]2C(C)(C)C3CC12CC[C@@]3(C)O (stereo partly drawn) 0.837

Provide normalized growth value for the following compound: Clc1ccc(COC(Cn2ccnc2)c2ccc(Cl)cc2Cl)c(Cl)c1 (stereo not drawn) 0.0694

Provide normalized growth value for the following compound: COC[C@]12CN(C=O)C3[C@@H]4[C@H](OC)C1[C@]3(C1CC3(O)C(OC)C(O)C4(OC(C)=O)C1C3OC(=O)c1ccccc1)[C@@H](OC)C[C@H]2O (stereo partly drawn) 1.01

Provide normalized growth value for the following compound: `FC(F)(F)c1cccc(N2CCNCC2)c1` 1.01

Provide normalized growth value for the following compound: CC(=O)O[C@H]1C[C@@]2(C)[C@@H](C[C@@H](O)C3[C@]2(C)CC[C@H]2[C@H](C)[C@H](O)CC[C@]32C)/C1=C(/CCC=C(C)C)C(=O)O (stereo partly drawn) 1.02

Provide normalized growth value for the following compound: CC(=O)Oc1c2c(c(CC=C(C)C)c3c1C(=O)C1=C[C@@H]4CC5C(C)(C)OC(C/C=C(\C)C(=O)O)(C4=O)[C@@]15O3)OC(C)(CCC=C(C)C)C=C2 (stereo partly drawn) 0.967

Provide normalized growth value for the following compound: `Clc1ccc(CO/N=C(/Cn2ccnc2)c2ccc(Cl)cc2Cl)c(Cl)c1` 0.08

Provide normalized growth value for the following compound: CC1[C@H](C)OC(=O)CC(O)CC(O)CC(O)CCC(O)C(O)C[C@]2(O)CC(O)C(C(=O)O)C(CC(OC3O[C@H](C)[C@@H](O)[C@H](N)[C@@H]3O)/C=C/C=C/C=C/C=C/CC/C=C/C=C/[C@H](C)[C@H]1O)O2 (stereo partly drawn) 0.757

Provide normalized growth value for the following compound: CC1OC(O[C@H]2/C=C/C=C/C=C/C=C/C=C/C=C/C=C/[C@H](C)[C@@H](O)[C@@H](C)[C@H](C)OC(=O)CC(O)CC(O)CCC(O)C(O)CC(O)C[C@]3(O)C[C@H](O)C(C(=O)O)C(C2)O3)C(O)[C@H](N)C1O (stereo partly drawn) 0.157

Provide normalized growth value for the following compound: `CN(C/C=C/C#CC(C)(C)C)Cc1cccc2ccccc12` 0.373

Provide normalized growth value for the following compound: `COc1ccc(-c2oc3cc(OC)c(OC)c(OC)c3c(=O)c2OC)cc1OC` 0.977

Provide normalized growth value for the following compound: CC(=O)Oc1c2c(c3c(c1CC=C(C)C)O[C@]14C(=C[C@@H]5CC1C(C)(C)OC4(C/C=C(\C)C(=O)O)C5=O)C3=O)OC(C)(CCC=C(C)C)C=C2 (stereo partly drawn) 1.01

Provide normalized growth value for the following compound: Cc1cccc(C)c1NC(=O)C1CCCCN1C (stereo not drawn) 0.997

Provide normalized growth value for the following compound: CC12CCCCC1(Br)[N+](=O)N2[O-] (stereo not drawn) 0.967

Provide normalized growth value for the following compound: CC1(C)N([O-])[N+](=O)C1(C)Br (stereo not drawn) 0.986

Provide normalized growth value for the following compound: C=NC(C(=O)NC1C(=O)N2C1SC(C)(C)C2C(=O)O)c1ccccc1 (stereo not drawn) 0.957

Provide normalized growth value for the following compound: `Cc1ccc(C(=O)c2ccc(CC(=O)O)n2C)cc1` 0.995

Provide normalized growth value for the following compound: `Fc1ccc([C@@H]2CCNC[C@H]2COc2ccc3c(c2)OCO3)cc1` 1.01

Provide normalized growth value for the following compound: Clc1ccc(CSC(Cn2ccnc2)c2ccc(Cl)cc2Cl)cc1 (stereo not drawn) 0.0762

Provide normalized growth value for the following compound: `COc1ccc(-c2oc3cc(OC)c(OC)c(OC)c3c(=O)c2OC)cc1` 0.93

Provide normalized growth value for the following compound: CC12CCC3C(=CCc4cc(O)ccc43)C1CCC2=O (stereo not drawn) 0.908

Provide normalized growth value for the following compound: COc1ccc2c(c1)OCC(Cc1ccc(OC)c(O)c1)C2=O (stereo not drawn) 0.914

Provide normalized growth value for the following compound: CC(=O)C1CCC2C3CCC4C[C@H](O)CCC4(C)C3C[C@H](O)C12C (stereo partly drawn) 0.945

Provide normalized growth value for the following compound: `c1ccc2c(CC3=NCCN3)cccc2c1` 0.981

Provide normalized growth value for the following compound: `CN1CCC[C@@H]1CCO[C@](C)(c1ccccc1)c1ccc(Cl)cc1` 0.916

Provide normalized growth value for the following compound: C[C@]12CCC3c4ccc(OC(=O)c5ccccc5)cc4CCC3C1CCC2=O (stereo partly drawn) 0.998

Provide normalized growth value for the following compound: `CN(C)C(=O)Oc1ccc[n+](C)c1` 0.999

Provide normalized growth value for the following compound: `NC(N)=NCCCCN=C(N)N` 1.01

Provide normalized growth value for the following compound: CCC(=O)OC1[C@@H]2CC3=C4CC(=O)O[C@@H](c5ccoc5)[C@]4(C)CCC3[C@@](C)(C2=O)[C@@H](CC(=O)OC)C1(C)C (stereo partly drawn) 1.02

Provide normalized growth value for the following compound: CC(=O)N[C@@H](CC(=O)O)C(=O)N[C@@H](CCC(=O)O)C(=O)O (Ac-Asp-Glu-OH) 1.03

Provide normalized growth value for the following compound: `CC(=O)O[C@]1(C)CC[C@@]23CC1C(C)(C)[C@@H]2CC[C@H]3C` 0.999

Provide normalized growth value for the following compound: `CC(O)(P(=O)(O)O)P(=O)(O)O` 1.01

Provide normalized growth value for the following compound: `O=C(O)[C@@H](S)[C@@H](S)C(=O)O` 0.96

Provide normalized growth value for the following compound: COC(=O)[C@@H]1OC(=O)C2OC23[C@@]1(C)CCC1[C@@]2(C)CCC(=O)C(C)(C)C2C[C@@H](OC(C)=O)[C@]13C (stereo partly drawn) 1.01

Provide normalized growth value for the following compound: CC(=O)C1CC[C@H]2C3CC[C@H]4C[C@H](O)CC[C@]4(C)C3CC[C@]12C (stereo partly drawn) 0.976

Provide normalized growth value for the following compound: CCCCCCCCCCCCCC(=O)OC1C(C)C2(O)C(C=C(CO)CC3(O)C(=O)C(C)=CC32)C2C(C)(C)C12OC(C)=O (stereo not drawn) 0.989

Provide normalized growth value for the following compound: NC(C(=O)O)C(O)C(=O)O (stereo not drawn) 0.949

Provide normalized growth value for the following compound: COc1ccc2c(c1)OCC(Cc1ccc(OC)c(OC)c1)C2=O (stereo not drawn) 0.939
